meta.source: patent US20120077957A1

Listed binders paired with reported pKi
Target Or System: human melanocortin-4 receptor (recombinant hMC4-R) (human), P32245
Sequence (P32245 whole entry): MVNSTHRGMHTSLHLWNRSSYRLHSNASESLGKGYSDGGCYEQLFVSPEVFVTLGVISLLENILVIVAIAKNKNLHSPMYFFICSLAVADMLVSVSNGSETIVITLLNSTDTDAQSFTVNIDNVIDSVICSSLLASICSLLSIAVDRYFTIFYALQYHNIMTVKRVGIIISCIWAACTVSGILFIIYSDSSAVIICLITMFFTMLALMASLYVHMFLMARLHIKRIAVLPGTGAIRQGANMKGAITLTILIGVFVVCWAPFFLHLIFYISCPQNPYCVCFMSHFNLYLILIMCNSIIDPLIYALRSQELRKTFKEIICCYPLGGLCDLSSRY
Experimental Protocol: competition with labelled NDP-α-MSH ([I125] or Eu), hMC4-R HEK-293 membranes
Condition Set: remark: other sources report otherwise
Bridge positions count the residues as written; N and C are the ends. Square brackets hold non-standard residues; d marks the D form. Orn = NCCC[C@H](N)C(=O)O; Dab = NCC[C@H](N)C(=O)O
When answering, recall that pKi equals minus log10 of the concentration in mol/L, and write that number alone.

Examples with their reported pKi follow.
Ac-RD[Orn][dF]RWK-NH2 (lactam 2-7) [Asp...Lys analog of peptide No. 8: Ac-Arg-cyclo(Asp-Orn-D-Phe-Arg-Trp-Lys)-NH2]
8.15
Ac-RD[Orn](Ac)[dF]RWK-NH2 (lactam 2-7) [Asp...Lys analog of peptide No. 33: Ac-Arg-cyclo(Asp-Orn(Acetyl)-D-Phe-Arg-Trp-Lys)-NH2]
6.24

Please examine the following record next.
Input: For Ac-RD[Dab][dF]RWK-NH2 (lactam 2-7) [Asp...Lys analog of peptides No. 6 and No. 43: Ac-Arg-cyclo(Asp-Dab-D-Phe-Arg-Trp-Lys)-NH2] , what is its reported pKi?
Output: 8.40
